Target or system: Yap3 (UniProt P38749)
Sequence: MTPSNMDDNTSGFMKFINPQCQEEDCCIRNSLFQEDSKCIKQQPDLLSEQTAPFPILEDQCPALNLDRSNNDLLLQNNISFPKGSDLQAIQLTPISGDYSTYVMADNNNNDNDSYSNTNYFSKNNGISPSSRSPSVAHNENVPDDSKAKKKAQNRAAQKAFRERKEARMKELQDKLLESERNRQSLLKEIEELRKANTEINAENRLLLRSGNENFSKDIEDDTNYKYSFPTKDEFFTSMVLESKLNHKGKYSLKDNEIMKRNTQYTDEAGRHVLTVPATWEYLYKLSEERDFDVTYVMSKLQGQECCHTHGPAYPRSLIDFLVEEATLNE
Measurement protocol: PBM E-score (8-mer binding enrichment) (E-score (-0.5 to 0.5)); higher = stronger / more preferred TF binding
Assay context: protein concentration: 100 nM; construct: GST-full length
In all, about 33,000 sequences were measured (“E-score (-0.5 to 0.5)”: median about -0.0034, highest 2% from about 0.25 on). Only a selection was taken, and the highest values are over-represented in it overall.
Reported property: PBM E-score
// no unit string in output, number only

Some solved cases for reference:
1) GAACGCTC :: -0.11
2) GTATAACA :: 0.133
3) ATATAATG :: 0.2
4) AAATTTAT :: 0.144
5) GGATAATA :: 0.0461

Give its PBM E-score value. Item: AACCATAT
0.266

Give its PBM E-score value. Item: CTATAAGA
0.182

Give its PBM E-score value. Item: TACTAAGA
0.242

Give its PBM E-score value. Item: ATGCATTA
0.333

Give its PBM E-score value. Item: TGACATAA
0.3

Give its PBM E-score value. Item: CTATAATA
0.0592

Give its PBM E-score value. Item: AACCATAA
0.15

Give its PBM E-score value. Item: ACTCACCA
-0.0571

Give its PBM E-score value. Item: CATTTTAG
0.121

Give its PBM E-score value. Item: GGACATAA
0.0711

Give its PBM E-score value. Item: GTCCATAA
-0.0433

Give its PBM E-score value. Item: GCTGTGCA
-0.205

Give its PBM E-score value. Item: CATTTTAC
0.332

Give its PBM E-score value. Item: CTGCATTA
-0.0676

Give its PBM E-score value. Item: AATTTTAT
0.266

Give its PBM E-score value. Item: GTATAAGA
0.0832

Give its PBM E-score value. Item: GTATAATA
0.287

====

Target or system: Yap3 (UniProt P38749)
Sequence: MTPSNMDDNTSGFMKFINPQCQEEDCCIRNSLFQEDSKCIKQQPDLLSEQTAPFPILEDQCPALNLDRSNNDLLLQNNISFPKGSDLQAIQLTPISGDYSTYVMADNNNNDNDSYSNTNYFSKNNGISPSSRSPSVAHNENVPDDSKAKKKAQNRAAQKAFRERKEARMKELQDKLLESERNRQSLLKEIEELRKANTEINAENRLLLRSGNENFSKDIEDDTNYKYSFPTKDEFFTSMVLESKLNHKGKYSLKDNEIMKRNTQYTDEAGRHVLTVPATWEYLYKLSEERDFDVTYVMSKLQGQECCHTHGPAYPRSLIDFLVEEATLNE
Measurement protocol: PBM E-score (8-mer binding enrichment) (E-score (-0.5 to 0.5)); higher = stronger / more preferred TF binding
Assay context: protein concentration: 100 nM; construct: GST-full length
The full ranking holds about 33,000 sequences; the median of “E-score (-0.5 to 0.5)” is about -0.0034, and the highest 2% start at about 0.25. The sample as a whole holds a higher share of the highest values than the screen did.
Assign condition met to entries whose PBM E-score meets or exceeds 0.2; assign condition not met to the rest.

1) AACAACAT :: condition not met
2) CACAACTG :: condition not met
3) ACAAAAAG :: condition met

In plain terms: is recorded PBM E-score at least 0.2 for GACAAATC ?
condition not met

In plain terms: is recorded PBM E-score at least 0.2 for AGTAGCCA ?
condition not met

In plain terms: is recorded PBM E-score at least 0.2 for AGCAAACT ?
condition not met

In plain terms: is recorded PBM E-score at least 0.2 for AACAACAC ?
condition met

In plain terms: is recorded PBM E-score at least 0.2 for CAATTATG ?
condition met

====

Target or system: Yap3 (UniProt P38749)
Sequence: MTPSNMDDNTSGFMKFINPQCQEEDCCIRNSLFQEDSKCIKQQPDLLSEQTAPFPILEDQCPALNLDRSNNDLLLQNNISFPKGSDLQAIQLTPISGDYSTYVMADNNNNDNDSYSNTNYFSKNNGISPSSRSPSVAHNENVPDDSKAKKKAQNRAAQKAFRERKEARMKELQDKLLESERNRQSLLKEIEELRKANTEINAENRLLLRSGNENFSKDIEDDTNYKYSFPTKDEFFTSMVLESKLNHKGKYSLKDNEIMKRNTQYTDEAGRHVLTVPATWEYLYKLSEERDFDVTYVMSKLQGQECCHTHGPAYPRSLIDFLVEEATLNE
Measurement protocol: PBM E-score (8-mer binding enrichment) (E-score (-0.5 to 0.5)); higher = stronger / more preferred TF binding
Assay context: protein concentration: 100 nM; construct: GST-full length
Whole data set: some 33,000 sequences, median “E-score (-0.5 to 0.5)” near -0.0034, cut for the highest 2% near 0.25. Many of the other results were omitted from the sample, so the highest values are more common in it than they were.
Reported property: PBM E-score
// no unit string in output, number only

Some solved cases for reference:
1) AAGTATAC :: 0.266
2) AAACAGCG :: 0.2
3) ATTTTTTG :: 0.226
4) GAAATACC :: 0.0809
5) AATTATTC :: 0.256

Give its PBM E-score value. Item: AAGTATAA
0.249

Give its PBM E-score value. Item: GACTGCAA
-0.0662

Give its PBM E-score value. Item: ATTTTTAG
-0.0279

Give its PBM E-score value. Item: ATTTTTTA
0.255

Give its PBM E-score value. Item: TCGGATAA
0.143

Give its PBM E-score value. Item: AAGGATTC
-0.129

====

Target or system: Yap3 (UniProt P38749)
Sequence: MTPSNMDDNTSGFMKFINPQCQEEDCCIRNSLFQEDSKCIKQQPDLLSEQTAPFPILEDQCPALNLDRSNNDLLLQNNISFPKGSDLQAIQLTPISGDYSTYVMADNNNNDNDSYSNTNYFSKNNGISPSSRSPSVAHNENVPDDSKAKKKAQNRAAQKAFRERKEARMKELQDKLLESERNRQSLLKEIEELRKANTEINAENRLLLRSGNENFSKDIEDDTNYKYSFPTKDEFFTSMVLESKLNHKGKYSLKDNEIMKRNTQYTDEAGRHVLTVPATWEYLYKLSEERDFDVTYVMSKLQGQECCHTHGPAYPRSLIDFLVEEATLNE
Measurement protocol: PBM E-score (8-mer binding enrichment) (E-score (-0.5 to 0.5)); higher = stronger / more preferred TF binding
Assay context: protein concentration: 100 nM; construct: GST-full length
Over roughly 33,000 sequences, “E-score (-0.5 to 0.5)” has its median near -0.0034; the highest 2% begin near 0.25. For the sample, the highest values were picked, then their nearest neighbours and some sequences at random.
Assign Condition met to entries whose PBM E-score meets or exceeds 0.08; assign Condition not met to the rest.

Study these solved cases before continuing.
1. ACATTGTC :: Condition met
2. ATTGAATC :: Condition not met
3. CTTGAAAA :: Condition met
4. TAAATAGA :: Condition not met

In plain terms: is recorded PBM E-score at least 0.08 for GATGAATA ?
Condition met

In plain terms: is recorded PBM E-score at least 0.08 for AAAATAGA ?
Condition met

In plain terms: is recorded PBM E-score at least 0.08 for CATGAATA ?
Condition not met

====

Target or system: Yap3 (UniProt P38749)
Sequence: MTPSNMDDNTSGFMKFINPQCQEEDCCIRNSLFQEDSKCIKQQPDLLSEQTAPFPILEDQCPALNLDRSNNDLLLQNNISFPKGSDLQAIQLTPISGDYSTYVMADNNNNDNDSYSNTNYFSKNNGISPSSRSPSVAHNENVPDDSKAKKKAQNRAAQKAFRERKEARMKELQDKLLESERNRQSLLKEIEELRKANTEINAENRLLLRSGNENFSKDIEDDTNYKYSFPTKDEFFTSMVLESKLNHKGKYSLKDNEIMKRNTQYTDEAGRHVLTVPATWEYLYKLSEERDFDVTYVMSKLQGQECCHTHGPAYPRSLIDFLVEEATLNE
Measurement protocol: PBM E-score (8-mer binding enrichment) (E-score (-0.5 to 0.5)); higher = stronger / more preferred TF binding
Assay context: protein concentration: 100 nM; construct: GST-full length
In all, about 33,000 sequences were measured (“E-score (-0.5 to 0.5)”: median about -0.0034, highest 2% from about 0.25 on). Shown is part of a subset that was picked to be rich in the highest values.
Assign t to entries whose PBM E-score meets or exceeds 0.1; assign f to the rest.

Study these solved cases before continuing.
1. ATTAGTTG :: t
2. GGTAGTCA :: f
3. AAATCCAT :: t
4. ATCAGTTA :: t
5. ATTAGTTA :: t
6. GTCAGTTA :: t

In plain terms: is recorded PBM E-score at least 0.1 for AAATCCAG ?
t

In plain terms: is recorded PBM E-score at least 0.1 for CTCAGTTA ?
f

In plain terms: is recorded PBM E-score at least 0.1 for AATTACCC ?
t

In plain terms: is recorded PBM E-score at least 0.1 for AAGGTTCC ?
f

In plain terms: is recorded PBM E-score at least 0.1 for CATTACAA ?
t

In plain terms: is recorded PBM E-score at least 0.1 for GTAGACCA ?
f

In plain terms: is recorded PBM E-score at least 0.1 for AATTACTG ?
t

In plain terms: is recorded PBM E-score at least 0.1 for GTGCCGCA ?
f

In plain terms: is recorded PBM E-score at least 0.1 for AAATCCAC ?
f

In plain terms: is recorded PBM E-score at least 0.1 for GTTAGTTA ?
t
